Where these numbers come from: paper PMC9103804

Target: T1, CIRV p19 (Carnation Italian ringspot virus, UniProt Q66104 1-172)
T1 sequence: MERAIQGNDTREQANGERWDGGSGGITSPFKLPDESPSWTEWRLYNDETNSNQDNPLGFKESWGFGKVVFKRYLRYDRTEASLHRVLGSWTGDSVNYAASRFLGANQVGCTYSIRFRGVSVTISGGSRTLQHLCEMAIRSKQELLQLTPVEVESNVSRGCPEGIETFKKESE
Test: EMSA
Conditions: protein: recombinant; tags: GST tag removed (PreScission, pGEX-6P-1); chain copies: 2; label: 5'-32P; 3' overhangs 2 nt, C/C mismatch
Lab note: cut-off is 0.3 nM. Strictly less in Kd is TRUE. Exactly 0.3 nM or more is FALSE.

binder	cat
miR162-12gC/8*C (dsRNA, 5'-phosphate) RNA 1: UCGAUAAACCUCUGCAUCCAG RNA 2: GGAUGCACAGGUUCAUCGAUC	TRUE
miR162-15gC/5*C (dsRNA, 5'-phosphate) RNA 1: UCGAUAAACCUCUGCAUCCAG RNA 2: GGAUCCAGAGGUUCAUCGAUC	TRUE
miR162-10gC/10*C (dsRNA, 5'-phosphate) RNA 1: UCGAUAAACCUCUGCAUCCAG RNA 2: GGAUGCAGACGUUCAUCGAUC	FALSE
miR162-18gC/2*C (dsRNA, 5'-phosphate) RNA 1: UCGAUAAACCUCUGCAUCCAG RNA 2: GCAUGCAGAGGUUCAUCGAUC	TRUE

Now turn to the next binder.
Ask: Quick check: Kd of miR162-19gC/1*C (dsRNA, 5'-phosphate) RNA 1: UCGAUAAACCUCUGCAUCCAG RNA 2: CGAUGCAGAGGUUCAUCGAUC under 0.3 nM?
Reply: FALSE
